Origin of values: BigSolDB 2.1

conditions: in water, 283.85 K
Measurement Label: solubility (mole fraction)
One number for each entry.

[Q] Consider the compound CS(=O)(=O)c1ccc([C@@H](O)[C@@H](CF)NC(=O)C(Cl)Cl)cc1 and give its recorded solubility (mole fraction).
[A] 2.86e-05

----------
settings: in methanol, 293.8 K
Measurement Label: solubility (mole fraction)

[Q] Please supply the value of reported solubility (mole fraction) for the item CS(=O)(=O)c1ccc([C@@H](O)[C@@H](CF)NC(=O)C(Cl)Cl)cc1
[A] 0.00724

----------
details: in ethanol, 278.55 K
Measurement Label: solubility (mole fraction)
Numbers only.

[Q] Indicate the recorded solubility (mole fraction) value for this compound: CS(=O)(=O)c1ccc([C@@H](O)[C@@H](CF)NC(=O)C(Cl)Cl)cc1
[A] 0.00126

----------
settings: in THF, 279.65 K
Measurement Label: solubility (mole fraction)
Give bare numbers.

[Q] Supply solubility (mole fraction) value. Item: CS(=O)(=O)c1ccc([C@@H](O)[C@@H](CF)NC(=O)C(Cl)Cl)cc1
[A] 0.0293

----------
conditions: in water, 278.8 K
Measurement Label: solubility (mole fraction)
Answers are plain numbers.

[Q] Provide measured solubility (mole fraction) value, entry: CS(=O)(=O)c1ccc([C@@H](O)[C@@H](CF)NC(=O)C(Cl)Cl)cc1
[A] 2.48e-05

----------
details: in methanol, 298.65 K
Measurement Label: solubility (mole fraction)
One number for each entry.

[Q] Give the value of solubility (mole fraction) reported for the following: CS(=O)(=O)c1ccc([C@@H](O)[C@@H](CF)NC(=O)C(Cl)Cl)cc1
[A] 0.00878

----------
conditions: in water, 289.1 K
Measurement Label: solubility (mole fraction)
One number for each entry.

[Q] Note solubility (mole fraction) for the compound shown: CS(=O)(=O)c1ccc([C@@H](O)[C@@H](CF)NC(=O)C(Cl)Cl)cc1
[A] 3.62e-05

----------
conditions: in n-propanol, 298.65 K
Measurement Label: solubility (mole fraction)
Numbers only.

[Q] Annotate the compound CS(=O)(=O)c1ccc([C@@H](O)[C@@H](CF)NC(=O)C(Cl)Cl)cc1 with its measured solubility (mole fraction).
[A] 0.00211

----------
details: in methanol, 283.5 K
Measurement Label: solubility (mole fraction)
Numbers only.

[Q] Give the reported value of solubility (mole fraction) for this record: CS(=O)(=O)c1ccc([C@@H](O)[C@@H](CF)NC(=O)C(Cl)Cl)cc1
[A] 0.00488

----------
details: in acetone, 294.45 K
Measurement Label: solubility (mole fraction)
Numbers only.

[Q] Retrieve solubility (mole fraction) measured for CS(=O)(=O)c1ccc([C@@H](O)[C@@H](CF)NC(=O)C(Cl)Cl)cc1 and print it.
[A] 0.0368

----------
settings: in water, 298.7 K
Measurement Label: solubility (mole fraction)
Numbers only.

[Q] Please indicate solubility (mole fraction) recorded for CS(=O)(=O)c1ccc([C@@H](O)[C@@H](CF)NC(=O)C(Cl)Cl)cc1
[A] 5.49e-05

----------
settings: in n-propanol, 293.5 K
Measurement Label: solubility (mole fraction)
Give bare numbers.

[Q] Give recorded solubility (mole fraction). CS(=O)(=O)c1ccc([C@@H](O)[C@@H](CF)NC(=O)C(Cl)Cl)cc1
[A] 0.00165

----------
settings: in ethanol, 288.8 K
Measurement Label: solubility (mole fraction)

[Q] Quote solubility (mole fraction) reported for CS(=O)(=O)c1ccc([C@@H](O)[C@@H](CF)NC(=O)C(Cl)Cl)cc1 please.
[A] 0.00212

----------
details: in ethanol, 293.7 K
Measurement Label: solubility (mole fraction)
Numbers only.

[Q] Please indicate solubility (mole fraction) recorded for CS(=O)(=O)c1ccc([C@@H](O)[C@@H](CF)NC(=O)C(Cl)Cl)cc1
[A] 0.00259

----------
conditions: in n-propanol, 284.05 K
Measurement Label: solubility (mole fraction)
Answers are plain numbers.

[Q] Supply reported solubility (mole fraction) belonging to this molecule: CS(=O)(=O)c1ccc([C@@H](O)[C@@H](CF)NC(=O)C(Cl)Cl)cc1
[A] 0.00106

----------
details: in acetone, 279.25 K
Measurement Label: solubility (mole fraction)
Give bare numbers.

[Q] Specify solubility (mole fraction) for CS(=O)(=O)c1ccc([C@@H](O)[C@@H](CF)NC(=O)C(Cl)Cl)cc1 and stop.
[A] 0.0261

----------
settings: in THF, 297.65 K
Measurement Label: solubility (mole fraction)
Numbers only.

[Q] For CS(=O)(=O)c1ccc([C@@H](O)[C@@H](CF)NC(=O)C(Cl)Cl)cc1 , write its solubility (mole fraction).
[A] 0.0398

----------
settings: in acetone, 289.1 K
Measurement Label: solubility (mole fraction)

[Q] State its solubility (mole fraction): CS(=O)(=O)c1ccc([C@@H](O)[C@@H](CF)NC(=O)C(Cl)Cl)cc1
[A] 0.0327

----------
conditions: in ethanol, 298.45 K
Measurement Label: solubility (mole fraction)
Answers are plain numbers.

[Q] For the molecule CS(=O)(=O)c1ccc([C@@H](O)[C@@H](CF)NC(=O)C(Cl)Cl)cc1 , report solubility (mole fraction).
[A] 0.00315

----------
settings: in ethanol, 283.45 K
Measurement Label: solubility (mole fraction)
Numbers only.

[Q] Determine its reported solubility (mole fraction): CS(=O)(=O)c1ccc([C@@H](O)[C@@H](CF)NC(=O)C(Cl)Cl)cc1
[A] 0.00153

----------
conditions: in water, 293.95 K
Measurement Label: solubility (mole fraction)
Answers are plain numbers.

[Q] Return value of solubility (mole fraction) for input CS(=O)(=O)c1ccc([C@@H](O)[C@@H](CF)NC(=O)C(Cl)Cl)cc1 , no commentary.
[A] 4.64e-05
